target: Mad2^L13A,R133A double mutant (human, UniProt Q13257 1-205, L13A | R133A); assay: ITC
measured.property: Kd (µM)

binder="EHQKAWALNLNGFDVEEAKILRLSGKPQ (domain or fragment, Limits not printed. 111-138 is the conventional Mad2-binding fragment of human Cdc20 around the KILR motif (129-132). Check residues come from the candidate's motif feature, not from the paper.) [Mad2-binding motif of Cdc20]" measured_property=Kd assay_result=0.12
